Here the recorded protein stability index is given for each entry.
B1: SEC22B (parent)
chain: FPKKLAFAYLEDLHSEFDEQHGKK

variants of: B1; assay: protein stability index of a GFP-peptide fusion (GPS, HEK-293T) (PSI 1-6); higher = more stable; conditions: c terminus: a fixed tail appended;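 also: lentivirally expressed fusions sorted by FACS into six bins by GFP to DsRed ratio, PSI derived from sequencing read proportions per bin multiplied by bin number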
Give a plain numeric answer without units written out.

INSERT INTO measurements (mutationcode, quantitativeresult) VALUES
  ('P2W', 1.95),
  ('G22D', 2.15),
  ('H14K', 2.96),
  ('D12W', 2.49),
  ('K24D', 2.68),
  ('P2T', 3.05);

Q: Fill in the blank: the reported protein stability index of F17P is ____.
Result: 2.75

Q: Fill in the blank: the reported protein stability index of H14E is ____.
Result: 2.13

Q: Fill in the blank: the reported protein stability index of L5V is ____.
Result: 2.9

Q: Fill in the blank: the reported protein stability index of K24F is ____.
Result: 2.21

Q: Fill in the blank: the reported protein stability index of Y9G is ____.
Result: 3.27
